System: GB4
Test: qHTS profiling for inhibitors of Plasmodium falciparum proliferation (AID 504749); note: nearly all actives have a fitted effect of over 60% in size
Conditions: P. falciparum in erythrocytes, SYBR Green DNA, 72 h; series mostly up to 28.7 µM
Inconclusive results are not listed. Activity calls are given as the source filed them. Calls come from the whole dose curve; as a rule, active = well fitted inhibition curve with a large enough effect; inconclusive = small, poorly fitted or top-dose-only effect; inactive = flat fitted curve, though single readings scatter.
// classify into active, inactive

Example entries begin here.
In [3]: df
Out[3]:
                                   compound  label_class
0        OC(Cn1cncn1)(Cn1cncn1)c1ccc(F)cc1F     inactive
1          CCCCCCNC(=O)n1cc(F)c(=O)[nH]c1=O       active
2              O=C(O)c1cc(=O)[nH]c(=O)[nH]1     inactive
3  COc1ccc(C(=O)CC(=O)c2ccc(C(C)(C)C)cc2)cc1     inactive
4  CC[C@H](NC(C)C)[C@H](O)c1ccc(O)c2[nH]c(=O)ccc12     inactive
5       COC(=O)Nc1nc2ccc(Sc3ccccc3)cc2[nH]1     inactive
6  COc1cc2c(Nc3ccc(Br)cc3F)ncnc2cc1OCC1CCN(C)CC1       active
7            N[C@@H](Cc1ccc(O)c(O)c1)C(=O)O     inactive

### Prompt Per the assay record, what outcome was assigned to `O=S(=O)(O)CCS` ?
### Response inactive

### Prompt Moving on to the next compound: Nc1nc(N)c2nc(CNc3ccc(C(=O)NC(CCC(=O)O)C(=O)O)cc3)cnc2n1 (configuration not stated)
### Response inactive

### Prompt Moving on to the next compound: `CC(C)OC(=O)C(C(=O)OC(C)C)=C1SC=CS1`
### Response inactive

### Prompt Moving on to the next compound: `NCCCC(O)(P(=O)(O)O)P(=O)(O)O`
### Response inactive

### Prompt Moving on to the next compound: `CCCc1cc(C(N)=S)ccn1`
### Response inactive

### Prompt Moving on to the next compound: `O=P(O)(O)C(O)(Cc1cccnc1)P(=O)(O)O`
### Response inactive

### Prompt Moving on to the next compound: `CCN(C)C(=O)Oc1cccc([C@H](C)N(C)C)c1`
### Response inactive

### Prompt Moving on to the next compound: `CC(C)(Sc1cc(C(C)(C)C)c(O)c(C(C)(C)C)c1)Sc1cc(C(C)(C)C)c(O)c(C(C)(C)C)c1`
### Response inactive

### Prompt Moving on to the next compound: `CC(C)Cn1cnc2c(N)nc3ccccc3c21`
### Response inactive

### Prompt Moving on to the next compound: `C[C@]12C=CC(=O)C=C1CC[C@@H]1[C@@H]2C(=O)C[C@@]2(C)[C@H]1CC[C@]2(O)C(=O)CO`
### Response inactive

### Prompt Moving on to the next compound: COc1c(N2CCNC(C)C2)c(F)cc2c(=O)c(C(=O)O)cn(C3CC3)c12 (configuration not stated)
### Response inactive
